Reported Ki by item:
target: JAK3 (Homo sapiens)
Sequence (P52333 1-1124): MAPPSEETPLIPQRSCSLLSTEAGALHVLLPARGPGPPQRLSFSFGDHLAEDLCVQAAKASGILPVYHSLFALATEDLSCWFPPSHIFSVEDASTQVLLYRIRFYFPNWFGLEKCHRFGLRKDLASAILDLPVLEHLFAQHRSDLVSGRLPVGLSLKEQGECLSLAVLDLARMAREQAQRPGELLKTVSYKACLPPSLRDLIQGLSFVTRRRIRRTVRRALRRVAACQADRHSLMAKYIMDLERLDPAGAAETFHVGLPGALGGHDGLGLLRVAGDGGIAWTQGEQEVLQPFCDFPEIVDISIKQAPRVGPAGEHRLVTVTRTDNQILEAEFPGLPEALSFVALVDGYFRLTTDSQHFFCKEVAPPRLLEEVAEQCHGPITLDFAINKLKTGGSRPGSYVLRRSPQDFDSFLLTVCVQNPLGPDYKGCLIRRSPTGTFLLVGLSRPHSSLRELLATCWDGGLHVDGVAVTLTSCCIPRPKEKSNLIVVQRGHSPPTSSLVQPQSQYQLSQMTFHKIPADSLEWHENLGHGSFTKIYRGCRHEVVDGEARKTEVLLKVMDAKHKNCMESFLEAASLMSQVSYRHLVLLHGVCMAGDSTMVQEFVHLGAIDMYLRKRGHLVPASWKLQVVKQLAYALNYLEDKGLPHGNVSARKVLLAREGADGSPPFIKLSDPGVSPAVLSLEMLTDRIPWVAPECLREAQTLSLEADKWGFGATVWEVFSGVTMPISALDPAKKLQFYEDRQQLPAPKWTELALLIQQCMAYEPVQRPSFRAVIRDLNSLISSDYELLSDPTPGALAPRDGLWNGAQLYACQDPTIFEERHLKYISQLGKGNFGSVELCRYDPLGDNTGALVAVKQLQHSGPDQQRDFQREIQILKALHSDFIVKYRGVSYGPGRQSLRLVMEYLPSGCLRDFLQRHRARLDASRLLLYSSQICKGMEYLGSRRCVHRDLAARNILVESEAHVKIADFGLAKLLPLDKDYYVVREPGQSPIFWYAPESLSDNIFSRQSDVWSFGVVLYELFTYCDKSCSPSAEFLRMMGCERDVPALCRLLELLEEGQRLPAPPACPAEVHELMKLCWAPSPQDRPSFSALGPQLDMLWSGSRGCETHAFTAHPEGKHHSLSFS
assay_comment: JAK3 inhibition assay (standard radioactive enzyme assay)
Assay type: biochemical
run_parameters: average Ki if more than one value determined

Examples with answers:
- CC(=O)N1[C@H](C)CN(c2cccc(-c3c[nH]c4ncc(OCCCN5CCOCC5)cc34)n2)C[C@@H]1C [Compound 208]: < 500 nM
- CC(=O)N1[C@H](C)CN(c2cccc(-c3c[nH]c4ncc(C(=O)OC(C)C)cc34)n2)C[C@@H]1C [Compound 53]: < 500 nM
- FC(F)(F)c1cc(NCc2ccccc2)cc(-c2c[nH]c3ncc(Cl)cc23)c1 [Compound 187]: < 500 nM

In plain terms, COC(=O)c1ccc(-c2c[nH]c3ncc(Cl)cc23)nc1NCc1ccccc1 [Compound 43] has a documented Ki of 500 to 5000 nM

In plain terms, CC(C)CN(C)c1cccc(-c2c[nH]c3ncc(Cl)cc23)n1 [Compound 123] has a documented Ki of < 500 nM

In plain terms, C=C/C=C/C(=O)Nc1cnc2[nH]cc(-c3cccc(N4C[C@@H](C)N(C(C)=O)[C@@H](C)C4)n3)c2c1 [Compound 191] has a documented Ki of < 500 nM

In plain terms, CCCOC(=O)Nc1cnc2[nH]cc(-c3cccc(N4C[C@@H](C)N(C(C)=O)[C@@H](C)C4)n3)c2c1 [Compound 62] has a documented Ki of < 500 nM

In plain terms, CC(=O)N1[C@H](C)CN(c2cccc(-c3c[nH]c4ncc(NC(=O)c5cccnc5)cc34)n2)C[C@@H]1C [Compound 163] has a documented Ki of < 500 nM

In plain terms, Clc1cnc2[nH]cc(-c3ccccn3)c2c1 [Compound 184] has a documented Ki of < 500 nM

In plain terms, O=C(O)c1cc(Br)cc(-c2c[nH]c3ncc(Cl)cc23)c1 [Compound 177] has a documented Ki of < 500 nM

In plain terms, O=C(O)c1ccc(-c2c[nH]c3ncc(Cl)cc23)nc1NCc1ccccc1 [Compound 42] has a documented Ki of < 500 nM

In plain terms, CC(=O)N1[C@H](C)CN(c2cccc(-c3c[nH]c4ncc(NC(=O)c5cccc(F)c5)cc34)n2)C[C@@H]1C [Compound 169] has a documented Ki of < 500 nM

In plain terms, COC(=O)Nc1cccc(-c2c[nH]c3ncc(Cl)cc23)n1 [Compound 87] has a documented Ki of < 500 nM

In plain terms, COC(=O)Nc1cnc2[nH]cc(-c3cccc(N4C[C@@H](C)N(C(C)=O)[C@@H](C)C4)n3)c2c1 [Compound 66] has a documented Ki of < 500 nM

In plain terms, Clc1cnc2[nH]cc(-c3ccccc3)c2c1 [Compound 183] has a documented Ki of < 500 nM

In plain terms, CC(C)[C@@H](CO)Nc1cccc(-c2c[nH]c3ncc(Cl)cc23)n1 [Compound 134] has a documented Ki of < 500 nM
